For each record, write down the corresponding loss of binding vs wild type.
- ASSAYED TARGET: T1, hiR2-FL-L539A-T7 (human, UniProt Q6PJF5 1-856)
- T1 construct: on MEF-DKO cells
- T1 sequence: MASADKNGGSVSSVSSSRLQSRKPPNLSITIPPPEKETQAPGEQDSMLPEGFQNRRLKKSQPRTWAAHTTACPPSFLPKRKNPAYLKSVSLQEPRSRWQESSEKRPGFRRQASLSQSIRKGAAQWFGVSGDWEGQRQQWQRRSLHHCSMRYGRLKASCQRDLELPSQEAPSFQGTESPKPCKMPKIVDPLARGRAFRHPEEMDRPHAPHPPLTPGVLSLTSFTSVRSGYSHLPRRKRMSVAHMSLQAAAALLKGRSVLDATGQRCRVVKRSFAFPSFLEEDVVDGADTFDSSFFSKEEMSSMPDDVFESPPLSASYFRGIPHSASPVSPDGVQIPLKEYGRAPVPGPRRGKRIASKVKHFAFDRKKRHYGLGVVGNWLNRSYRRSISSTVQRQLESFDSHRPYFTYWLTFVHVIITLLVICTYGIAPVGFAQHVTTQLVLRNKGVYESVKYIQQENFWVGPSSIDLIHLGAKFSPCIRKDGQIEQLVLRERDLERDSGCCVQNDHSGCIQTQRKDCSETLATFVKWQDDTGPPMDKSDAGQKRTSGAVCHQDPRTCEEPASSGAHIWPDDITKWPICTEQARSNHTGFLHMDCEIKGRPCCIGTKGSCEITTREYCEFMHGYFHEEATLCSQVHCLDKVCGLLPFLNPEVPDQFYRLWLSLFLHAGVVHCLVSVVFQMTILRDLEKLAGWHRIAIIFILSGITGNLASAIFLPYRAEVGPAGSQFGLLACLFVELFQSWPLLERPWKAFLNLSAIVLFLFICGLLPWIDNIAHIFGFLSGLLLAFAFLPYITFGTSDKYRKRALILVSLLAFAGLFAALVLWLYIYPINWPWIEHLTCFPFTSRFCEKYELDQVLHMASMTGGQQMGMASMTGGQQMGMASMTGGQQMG
- ASSAY DETAILS: FACS on MEF-DKO cells expressing the variant, 3 µg/ml antibody

Reference set (4 entries):
antibody 44 (antibody, V domains shown, mouse IgG, kappa light chain; also called clone #44; purified antibody 44) VH: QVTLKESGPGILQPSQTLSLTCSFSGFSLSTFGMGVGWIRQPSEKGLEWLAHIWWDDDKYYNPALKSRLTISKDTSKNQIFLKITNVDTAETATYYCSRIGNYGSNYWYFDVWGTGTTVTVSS VL: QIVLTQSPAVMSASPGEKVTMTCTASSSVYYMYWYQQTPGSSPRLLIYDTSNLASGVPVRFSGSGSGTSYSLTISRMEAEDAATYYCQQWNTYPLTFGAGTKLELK :: ≥ 60%
antibody 3 (antibody, V domains shown, mouse IgG, kappa light chain; also called clone #3; purified antibody 3) VH: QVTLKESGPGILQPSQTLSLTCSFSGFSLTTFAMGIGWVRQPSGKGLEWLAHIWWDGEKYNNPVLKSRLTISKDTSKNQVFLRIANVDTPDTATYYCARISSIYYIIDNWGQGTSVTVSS VL: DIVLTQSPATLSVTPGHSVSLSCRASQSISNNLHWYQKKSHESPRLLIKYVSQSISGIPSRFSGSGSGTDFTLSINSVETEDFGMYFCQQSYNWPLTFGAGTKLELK :: ≥ 30%
antibody 22 (antibody, V domains shown, mouse IgG, kappa light chain; also called clone #22; purified antibody 22) VH: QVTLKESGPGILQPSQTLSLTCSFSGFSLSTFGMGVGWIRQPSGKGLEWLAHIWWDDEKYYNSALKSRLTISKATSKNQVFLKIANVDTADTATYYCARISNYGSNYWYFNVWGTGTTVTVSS VL: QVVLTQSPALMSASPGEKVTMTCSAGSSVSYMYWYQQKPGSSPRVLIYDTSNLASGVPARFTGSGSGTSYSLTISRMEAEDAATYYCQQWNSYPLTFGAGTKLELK :: ≥ 95%
antibody 5 (antibody, V domains shown, mouse IgG, kappa light chain; also called clone #5; purified antibody 5) VH: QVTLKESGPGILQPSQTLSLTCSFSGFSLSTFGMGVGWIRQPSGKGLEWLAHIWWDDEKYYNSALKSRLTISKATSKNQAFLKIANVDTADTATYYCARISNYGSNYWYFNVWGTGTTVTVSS VL: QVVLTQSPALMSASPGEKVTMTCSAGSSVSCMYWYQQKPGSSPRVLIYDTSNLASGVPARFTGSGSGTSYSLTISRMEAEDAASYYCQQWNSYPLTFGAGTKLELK :: ≥ 60%

The record that follows has no loss of binding vs wild type shown yet.
Sample antibody 50 (antibody, V domains shown, mouse IgG, kappa light chain; also called clone #50; purified antibody 50) VH: QVQLQQSGAELVRPGASVKVSCKASGYAFSNYLIEWVKQRPGQGLEWIGVINPGSGFTKYNEKFKGKATLTADKSSSTAYMQLSSLTSEDSAVYFCARGLYRAMDYWGQGTSVTVSS VL: DIQMTQSPASQSASLGESVTITCLASQTIGTWLAWYQQKPGKSPQLLIYAAASLADGVPSRFSGGGSGTKFSFKISSLQAEDFVNYYCQQIYSTPYTFGGGTKLEIK ; loss of binding vs wild type observed: ≥ 30%
